biological target: human platelet phospholipase A2 (Homo sapiens, UniProt P14555); construct: a preparation of human platelet phospholipase A2; from tissue; host or cells: human platelets; test: Inhibition of human platelet phospholipase A2 (14C-oleate E. coli substrate); type: biochemical; conditions: read-out: Inhibition of PLA2, % Inhibition @ 50 μM
inhibition at 50 µM reference
test-readout: inhibition at 50 µM

INSERT INTO measurements (compound, test_readout, result) VALUES
  ('O=C1C=C(c2ccc(CC(O)COc3ccc4ccccc4c3)cc2)C(O)O1 (racemic) [Example 51]', 'inhibition at 50 µM', '30%'),
  ('O=C1C=C(Sc2ccc(Br)cc2)C(O)O1 (stereo not drawn) [Example 68]', 'inhibition at 50 µM', '0%'),
  ('O=C1C=C(c2ccccc2)C(O)O1 (stereo not drawn) [Example 42, 5-Hydroxy-4-phenyl-2(5H)-furanone]', 'inhibition at 50 µM', '9%'),
  ('O=C1C=C(c2ccc(C(=O)c3ccc4ccccc4c3)cc2)C(O)O1 (stereo not drawn) [Example 29]', 'inhibition at 50 µM', '59%'),
  ('CC1=C(CCCCCCCOc2ccc(C3=CC(=O)OC3O)cc2)C(C)(C)CCC1 (stereo not drawn) [Example 27]', 'inhibition at 50 µM', '67%'),
  ('CC1=C(C/C=C(\C)CSc2ccc(C3=CC(=O)OC3O)cc2)C(C)(C)CCC1 (stereo not drawn) [Example 18]', 'inhibition at 50 µM', '75%'),
  ('O=C1C=C(c2ccc(OS(=O)(=O)C(F)(F)F)cc2)C(O)O1 (stereo not drawn) [Example 46]', 'inhibition at 50 µM', '0%'),
  ('C=CCc1ccc(C2=CC(=O)OC2O)cc1O (stereo not drawn) [Example 41]', 'inhibition at 50 µM', '0%'),
  ('O=C1C=C(c2ccc(OCc3ccc(C#Cc4ccccc4)cc3)cc2)C(O)O1 (stereo not drawn) [Example 44]', 'inhibition at 50 µM', '90%');

====

test system: TPA-induced inflammation in the mouse ear; experiment: Topical anti-inflammatory activity: TPA-induced inflammation (edema) in the mouse ear; format: in vivo, mouse (male CD-1); settings: Mus musculus, @ 100 μg, 5-6 h after TPA
test-readout: inhibition in vivo at 100 µg/ear (%)

INSERT INTO results (compound, measured_target, test_readout, unit_name, quantitative_readout) VALUES
  ('CCCCC/C=C\C/C=C\CCCCCCCCOc1cccc(C2=CC(=O)OC2O)c1 (stereo not shown)', 'TPA-induced inflammation in the mouse ear', 'inhibition in vivo at 100 µg/ear', '%', 80),
  ('CC1=C(CCCC/C=C(\C)COc2ccc(C3=CC(=O)OC3O)cc2)C(C)(C)CCC1 (stereo not shown)', 'TPA-induced inflammation in the mouse ear', 'inhibition in vivo at 100 µg/ear', '%', 4),
  ('CC1=C(C/C=C(\C)CSc2ccc(C3=CC(=O)OC3O)cc2)C(C)(C)CCC1 (stereo not shown)', 'TPA-induced inflammation in the mouse ear', 'inhibition in vivo at 100 µg/ear', '%', 70),
  ('CCCCCCCCOc1ccc(SC2=CC(=O)OC2O)cc1 (stereo not shown)', 'TPA-induced inflammation in the mouse ear', 'inhibition in vivo at 100 µg/ear', '%', 48),
  ('CC1=C(CCC(C)Oc2ccc(C3=CC(=O)OC3O)cc2)C(C)(C)CCC1 (stereo not shown)', 'TPA-induced inflammation in the mouse ear', 'inhibition in vivo at 100 µg/ear', '%', 48),
  ('CC1=C(CC/C=C(\C)COc2ccc(C3=CC(=O)OC3O)cc2)C(C)(C)CCC1 (stereo not shown)', 'TPA-induced inflammation in the mouse ear', 'inhibition in vivo at 100 µg/ear', '%', 49),
  ('CCCCC/C=C/Cc1cc(C2=CC(=O)OC2O)ccc1O (stereo not shown)', 'TPA-induced inflammation in the mouse ear', 'inhibition in vivo at 100 µg/ear', '%', 78),
  ('O=C1C=C(c2ccccc2)C(O)O1 (stereo not shown) [Example 42, 5-Hydroxy-4-phenyl-2(5H)-furanone]', 'TPA-induced inflammation in the mouse ear', 'inhibition in vivo at 100 µg/ear', '%', 45),
  ('CCCCCCC#Cc1ccc(C2=CC(=O)OC2O)cc1 (stereo not shown)', 'TPA-induced inflammation in the mouse ear', 'inhibition in vivo at 100 µg/ear', '%', 9),
  ('O=C1C=C(c2ccc(C(=O)/C=C/c3ccc4ccccc4c3)cc2)C(O)O1 (stereo not shown)', 'TPA-induced inflammation in the mouse ear', 'inhibition in vivo at 100 µg/ear', '%', 66),
  ('CCCCCCCCOc1ccc(C2=CC(=O)OC2O)cc1 (stereo not shown)', 'TPA-induced inflammation in the mouse ear', 'inhibition in vivo at 100 µg/ear', '%', 56),
  ('CC1=C(CCCCCCCOc2ccc(C3=CC(=O)OC3O)cc2)C(C)(C)CCC1 (stereo not shown)', 'TPA-induced inflammation in the mouse ear', 'inhibition in vivo at 100 µg/ear', '%', 35),
  ('C=CC(CCCCC)Oc1ccc(C2=CC(=O)OC2O)cc1 (stereo not shown)', 'TPA-induced inflammation in the mouse ear', 'inhibition in vivo at 100 µg/ear', '%', 34),
  ('C=CCc1ccc(C2=CC(=O)OC2O)cc1O (stereo not shown)', 'TPA-induced inflammation in the mouse ear', 'inhibition in vivo at 100 µg/ear', '%', 64),
  ('CC1=C(C/C=C(\C)COc2ccc(C3=CC(=O)OC3O)cc2)C(C)(C)CCC1 (stereo not shown)', 'TPA-induced inflammation in the mouse ear', 'inhibition in vivo at 100 µg/ear', '%', 43),
  ('CCCCCC/C=C/c1ccc(C2=CC(=O)OC2O)cc1 (stereo not shown)', 'TPA-induced inflammation in the mouse ear', 'inhibition in vivo at 100 µg/ear', '%', 30),
  ('CCCCCCCCSc1ccc(C2=CC(=O)OC2O)cc1 (stereo not shown)', 'TPA-induced inflammation in the mouse ear', 'inhibition in vivo at 100 µg/ear', '%', 20),
  ('O=C1C=C(c2ccc(OCc3ccc(C#Cc4ccccc4)cc3)cc2)C(O)O1 (stereo not shown)', 'TPA-induced inflammation in the mouse ear', 'inhibition in vivo at 100 µg/ear', '%', 43),
  ('O=C1C=C(c2ccc(OCCCCCCOc3ccc4ccccc4c3)cc2)C(O)O1 (stereo not shown)', 'TPA-induced inflammation in the mouse ear', 'inhibition in vivo at 100 µg/ear', '%', 0);

====

Biological target: human platelet phospholipase A2 (Homo sapiens)
Construct: a preparation of human platelet phospholipase A2; from tissue; host or cells: human platelets
Sequence (P14555 21-144): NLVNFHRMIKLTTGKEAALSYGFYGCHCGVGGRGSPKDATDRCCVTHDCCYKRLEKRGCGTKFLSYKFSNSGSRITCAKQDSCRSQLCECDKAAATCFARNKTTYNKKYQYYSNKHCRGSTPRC
Assay: Inhibition of human platelet phospholipase A2 (14C-oleate E. coli substrate)
Type: biochemical
Settings: read-out: Inhibition of PLA2, % Inhibition @ 50 μM
Measured inhibition at 50 µM, listed per entry.
test-readout: inhibition at 50 µM

INSERT INTO measurements (molecule, measured_target, result) VALUES
  ('C=CCOc1cccc(C2=CC(=O)OC2O)c1 (centres unmarked)', 'human platelet phospholipase A2 (Homo sapiens)', '0%'),
  ('C=CCCCCCCCCC(=O)c1ccc(C2=CC(=O)OC2O)cc1 (centres unmarked)', 'human platelet phospholipase A2 (Homo sapiens)', '86%'),
  ('CCCCCCCC(=O)Nc1cccc(C2=CC(=O)OC2O)c1 (centres unmarked)', 'human platelet phospholipase A2 (Homo sapiens)', '0%'),
  ('CC1=C(C/C=C(\C)COc2cccc(C3=CC(=O)OC3O)c2)C(C)(C)CCC1 (centres unmarked)', 'human platelet phospholipase A2 (Homo sapiens)', '100%'),
  ('O=C1C=C(c2ccc(C#Cc3ccccc3)cc2)C(O)O1 (centres unmarked)', 'human platelet phospholipase A2 (Homo sapiens)', '67%');

====

Biological target: human platelet phospholipase A2 (Homo sapiens, UniProt P14555)
Construct: a preparation of human platelet phospholipase A2; from tissue; host or cells: human platelets
Sequence (P14555 21-144): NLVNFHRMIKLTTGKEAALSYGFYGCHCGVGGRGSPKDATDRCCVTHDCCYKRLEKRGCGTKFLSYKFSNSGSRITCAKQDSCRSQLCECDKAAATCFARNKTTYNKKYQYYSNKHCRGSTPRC
Assay: Inhibition of human platelet phospholipase A2 (14C-oleate E. coli substrate)
Type: biochemical
Details: read-out: Inhibition of PLA2, % Inhibition @ 50 μM
Measured inhibition at 50 µM by item
test-readout: inhibition at 50 µM

INSERT INTO assay_data (compound, test_readout, result) VALUES
  ('CCCCC/C=C/Cc1cc(C2=CC(=O)OC2O)ccc1O (centres unmarked) [Example 38]', 'inhibition at 50 µM', '85%'),
  ('O=C1C=C(c2cccc(Oc3ccccc3)c2)C(O)O1 (centres unmarked) [Example 43]', 'inhibition at 50 µM', '30%'),
  ('O=C1C=C(c2ccc(/C=C\c3ccccc3)cc2)C(O)O1 (single isomer, unassigned) [Example 33]', 'inhibition at 50 µM', '23%'),
  ('CCCCCCCCNS(=O)(=O)c1ccc(C2=CC(=O)OC2O)cc1 (centres unmarked) [Example 45]', 'inhibition at 50 µM', '13%'),
  ('CCCCCCCCOc1cccc(C2=CC(=O)OC2O)c1 (centres unmarked) [Example 3]', 'inhibition at 50 µM', '39%');
